Ref: patent US9340577B2

# Assay system: HLA-A*0201 (HLA-A2.1) (Homo sapiens, UniProt P04439, D140Y/D185E/D98H/E176V/E277Q/G131W/G231S/I119V/I121R/I166T/I218V/L300P/L318F/N151K/N90K/P208A/P217A/Q86G/Q94H/R138H/R169H/T345S)
# Experimental details: biochemical
# Format: binding
No end group written: not given here.
Reported log10 IC50 values are given for each entry in this list.
Form field - Quantity: IC50; Unit: nM; Scale: log10

// solved cases for log10 IC50 follow
{"Sequence entry": "RMLQQLLFI [Peptide 1525.12]", "log10 IC50": 1.18}
{"Sequence entry": "GLSAGATVGV [Peptide 9013.0250]", "log10 IC50": 1.99}
{"Sequence entry": "LLLSNDNRTL [Peptide 9013.0205]", "log10 IC50": 3.91}

Reported log10 IC50, sequence WLRLLLTASL [Peptide 9013.0116] : ____
3.95

Reported log10 IC50, sequence RILQQMLFI [Peptide 1525.22] : ____
2.27

Reported log10 IC50, sequence ILNDTGFYT [Peptide 9013.0036] : ____
2.33

Reported log10 IC50, sequence TVTTITVYV [Peptide 9013.0068] : ____
2.01

Reported log10 IC50, sequence TLGIMIGVL [Peptide 9013.0108] : ____
3.87

Reported log10 IC50, sequence QLSNGNRTV [Peptide 9013.0095] : ____
4.18

Reported log10 IC50, sequence ILAEAMSKA [Peptide 1516.09] : ____
1.86

Reported log10 IC50, sequence GLNRTTVTV [Peptide 9013.0066] : ____
2.04

Reported log10 IC50, sequence QLSTQELFI [Peptide 9013.0057] : ____
1.81

Reported log10 IC50, sequence LLTFWNPPTTV [Peptide 9013.0259] : ____
2.88

Reported log10 IC50, sequence QITPLCVTL [Peptide 1516.13] : ____
2.99
